target: Bcl-xL (Homo sapiens, UniProt Q07817); construct: Human Bcl-xL (Acc. no. NP_612815; residues 1-209); GST (N, cleaved yes); made in house; assay: Solution competition assay (competition with immobilized wtBimBH3, biosensor); format: binding; conditions: Bcl-xL; b59-60 do not name the target, values match Table 4; read-out: IC50
Sequence (Q07817 1-209): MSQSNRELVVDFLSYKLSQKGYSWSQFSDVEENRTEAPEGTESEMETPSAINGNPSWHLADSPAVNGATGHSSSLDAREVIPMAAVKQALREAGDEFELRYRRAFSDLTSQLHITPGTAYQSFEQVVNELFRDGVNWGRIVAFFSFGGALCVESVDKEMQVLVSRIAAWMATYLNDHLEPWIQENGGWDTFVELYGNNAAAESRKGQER
pIC50: −log10 of the molar value. Ends that are not written are not given here.
metric name: pIC50

In: Entry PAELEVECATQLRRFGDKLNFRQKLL [Noxa (18-43)] : reported pIC50 = ?
Out: < 4.00
